Measured pIC50 accompanies every entry in the list below.
target: recombinant human His-tagged Tyk2 pseudokinase domain (His-TVMV-Tyk2, 575-869) (Homo sapiens, UniProt P29597)
Sequence (P29597 with tags, fused parts or gaps): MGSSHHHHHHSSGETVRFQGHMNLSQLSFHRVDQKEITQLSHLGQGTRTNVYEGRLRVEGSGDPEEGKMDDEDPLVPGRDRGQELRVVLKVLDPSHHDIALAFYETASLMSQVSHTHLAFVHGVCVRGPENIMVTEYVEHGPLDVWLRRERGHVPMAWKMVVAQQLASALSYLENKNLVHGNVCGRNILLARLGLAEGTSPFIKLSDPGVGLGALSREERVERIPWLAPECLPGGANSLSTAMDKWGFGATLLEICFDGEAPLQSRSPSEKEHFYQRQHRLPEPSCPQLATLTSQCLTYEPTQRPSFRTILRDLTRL
assayName: Probe Displacement Assay (HTRF Format)
measurementConditions: 0.5 nM Tyk2 pseudokinase domain, 1 h room temperature, read-out: Binding IC50
Kindly note that pIC50 refers to -log10 of the concentration in mol/L and answer with the value alone.

Below, each entry is followed by its recorded pIC50 result.
linenotation=[2H]C([2H])([2H])NC(=O)c1nnc(Nc2ccn(C)n2)cc1Nc1ccccc1P(C)(C)=O valuemeasured=7.92
linenotation=[2H]C([2H])([2H])NC(=O)c1nnc(Nc2ccc(N3CCOCC3)cn2)cc1Nc1ncccc1P(C)(C)=O valuemeasured=9.21

Per the record, [2H]C([2H])([2H])NC(=O)c1nnc(Nc2ccc(C(C)(C)N)cn2)cc1Nc1ncccc1P(C)(C)=O has pIC50 of 8.92

Per the record, [2H]C([2H])([2H])NC(=O)c1nnc(Nc2cc(Cl)c(C(C)(C)O)cn2)cc1Nc1ncccc1P(C)(C)=O has pIC50 of 9.28
